target: NP of A/California/07/2009(H1N1/H1S) (influenza A virus, NYMC X-181 derived …); experiment: sandwich ELISA, capture IgG; NP of lysed virus titrated; HRP-NP17 detection
Sequence (P03466 whole entry): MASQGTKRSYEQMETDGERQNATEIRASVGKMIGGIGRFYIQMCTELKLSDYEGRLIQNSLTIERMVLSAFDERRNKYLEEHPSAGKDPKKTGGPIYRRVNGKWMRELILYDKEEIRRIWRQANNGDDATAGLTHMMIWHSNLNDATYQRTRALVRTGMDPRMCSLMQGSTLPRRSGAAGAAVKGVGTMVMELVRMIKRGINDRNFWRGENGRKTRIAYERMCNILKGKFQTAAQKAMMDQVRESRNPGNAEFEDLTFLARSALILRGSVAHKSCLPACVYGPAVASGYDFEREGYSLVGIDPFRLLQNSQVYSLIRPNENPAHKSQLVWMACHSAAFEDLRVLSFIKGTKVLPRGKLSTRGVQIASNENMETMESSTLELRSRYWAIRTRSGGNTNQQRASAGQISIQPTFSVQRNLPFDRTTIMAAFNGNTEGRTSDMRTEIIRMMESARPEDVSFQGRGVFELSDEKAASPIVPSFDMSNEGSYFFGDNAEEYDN
Each entry below carries its reported EC50.
Record the value in nM, omitting the unit from your answer.

binder: NP19 (antibody, V domains shown) VH: EVQLVESGGGLVQPGGSLRLSCAASGFTISSWGIHWVRQAPGKGLEWVAGIGPFWGYTSYADSVKGRFTISADTSKNTAYLQMNSLRAEDTAVYYCARFGVDNYGYMDYWGQGTLVTVSS VL: DIQMTQSPSSLSASVGDRVTITCRASQDVSGWVAWYQQKPGKAPKLLISWSTGLYSGVPSRFSGSGSGTDFTLTISSLQPEDFATYYCQQYFNFPVTFGQGTKVEIKR
EC50 / nM: 0.863

Query binder follows.
Ask: Which measured EC50 value corresponds to NP6 (antibody, V domains shown) VH: EVQLVESGGGLVQPGGSLRLSCAASGFTINDGSIHWVRQAPGKGLEWVAGIGPFGGFTYYADSVKGRFTISADTSKNTAYLQMNSLRAEDTAVYYCARSGYSGSFDYWGQGTLVTVSS VL: DIQMTQSPSSLSASVGDRVTITCRASQDVYFGVAWYQQKPGKAPKLLIYGTSYLYSGVPSRFSGSGSGTDFTLTISSLQPEDFATYYCQQFSNWPITFGQGTKVEIKR ?
Result: 3.07
